Experiment: refractive index (Na D-line) (dimensionless)
Conditions: 318.15 K; 101.33 kPa; Liquid; Standard Abbe refractometry
result type: refractive index

{"compound": "C1CC[C@H]2CCCC[C@@H]2C1 [trans-decahydronaphthalene]", "result type": "refractive index", "val": 1.4581}
{"compound": "CCCCCCCCCC", "result type": "refractive index", "val": 1.4}
{"compound": "C1CC[C@H]2CCCC[C@H]2C1 [cis-decahydronaphthalene]", "result type": "refractive index", "val": 1.4696}
{"compound": "CCCCCCCCC", "result type": "refractive index", "val": 1.3937}
{"compound": "CCCCCCCCCCC", "result type": "refractive index", "val": 1.4058}

Reference source: the NIST ThermoML archive (doi:10.1021/je400250u)
